Hey, just so you know, these numbers are from patent US20230399608A1.

tested on: proliferating germ cells in cultured testicular tissue; assay: Inhibitor screen in cultured testicular tissue: EdU+ cells per unit area relative to best prior condition; format: cell-based, human; settings: ratio of EdU+ cells per unit area in test condition to condition 2; inhibitor at concentration listed in Table 12
Is EdU+/area (um2) to condition 2 at least 2? Then Y. If not, N.

compound	tested_system	assigned_label
C[C@]12CC[C@H]3[C@@H](CC[C@]4(O)C[C@@H](O)CC[C@]34C=O)[C@@]1(O)CC[C@@H]2C1=CC(=O)OC1 [Strophanthidin]	proliferating germ cells in cultured testicular tissue	Y
O=C(Nc1ccc([N+](=O)[O-])cc1O)Nc1ccccc1Br [SB225002]	proliferating germ cells in cultured testicular tissue	N
CC(C)=CCC[C@](C)(O[C@@H]1O[C@H](CO)[C@@H](O)[C@H](O)[C@H]1O)[C@H]1CC[C@]2(C)[C@@H]1[C@H](O)C[C@@H]1[C@@]3(C)CC[C@H](O)C(C)(C)[C@@H]3[C@@H](O[C@@H]3O[C@H](CO)[C@@H](O)[C@H](O)[C@H]3O[C@@H]3OC[C@@H](O)[C@H](O)[C@H]3O)C[C@]12C [Notoginsenoside R1]	proliferating germ cells in cultured testicular tissue	N
C[C@@H]1[C@H](O)[C@@H](C)/C=C/C=C/CC/C=C/C=C/C=C/C=C/C(O[C@H]2O[C@H](C)[C@@H](O)[C@H](N)[C@@H]2O)CC2O[C@](O)(CC(O)C(O)CCC(O)CC(O)CC(O)CC(=O)O[C@H]1C)CC(O)C2C(=O)O (some centres unmarked) [Nystatin]	proliferating germ cells in cultured testicular tissue	Y
c1cc(CN2CCCNCCNCCCNCC2)ccc1CN1CCCNCCNCCCNCC1 [Plerixafor]	proliferating germ cells in cultured testicular tissue	N
